System: HeLa Kyoto
Experiment: solubility change mitosis vs G1/S (difference of NP-40 vs SDS log2 ratios) (log2 ratio difference); higher = more soluble in mitosis
Measured Metric: solubility change mitosis (log2)

The examples below pair each entry with its known result.
MRKMLAAVSRVLSGASQKPASRVLVASRNFANDATFEIKKCDLHRLEEGPPVTTVLTREDGLKYYRMMQTVRRMELKADQLYKQKIIRGFCHLCDGQEACCVGLEAGINPTDHLITAYRAHGFTFTRGLSVREILAELTGRKGGCAKGKGGSMHMYAKNFYGGNGIVGAQVPLGAGIALACKYNGKDEVCLTLYGDGAANQGQIFEAYNMAALWKLPCIFICENNRYGMGTSVERAAASTDYYKRGDFIPGLRVDGMDILCVREATRFAAAYCRSGKGPILMELQTYRYHGHSMSDPGVSYRTREEIQEVRSKSDPIMLLKDRMVNSNLASVEELKEIDVEVRKEIEDAAQFATADPEPPLEELGYHIYSSDPPFEVRGANQWIKFKSVS [PDHA1] = -0.122
MLFYSFFKSLVGKDVVVELKNDLSICGTLHSVDQYLNIKLTDISVTDPEKYPHMLSVKNCFIRGSVVRYVQLPADEVDTQLLQDAARKEALQQKQ [LSM2] = 0.0659

Read the next record carefully.
Qu. Which solubility change mitosis (log2) value is on record for MRRAWILLTLGLVACVSAESRAELTSDKDMYLDNSSIEEASGVYPIDDDDYASASGSGADEDVESPELTTSRPLPKILLTSAAPKVETTTLNIQNKIPAQTKSPEETDKEKVHLSDSERKMDPAEEDTNVYTEKHSDSLFKRTEVLAAVIAGGVIGFLFAIFLILLLVYRMRKKDEGSYDLGERKPSSAAYQKAPTKEFYA [SDC2] ?
Ans. -0.902

----------
Test system: HeLa Kyoto
Experiment: thermal stability score vs G1/S (z-score of summed log2 fold changes over temperatures); higher = more thermally stable than in G1/S
Conditions: cell cycle stage: mitosis
Measured Metric: thermal stability score
Just the number, please, no unit attached.

Qu. Which thermal stability score value is on record for MVQLRPRASRAPASAEAMVDEGQLASEEEEAEHGLLLGQPSSGAAAEPLEEDEEGDDEFDDEAPEELTFASAQAEAREEERRVRETVRRDKTLLKEKRKRREELFIEQKKRKLLPDTILEKLTTASQTNIKKSPGKVKEVNLQKKNEDCEKGNDSKKVKVQKVQSVSQNKSYLAVRLKDQDLRDSRQQAAQAFIHNSLYGPGTNRTTVNKFLSLANKRLPVKRAAVQFLNNAWGIQKKQNAKRFKRRWMVRKMKTKK [NOL7] ?
Ans. -4.23

Qu. Which thermal stability score value is on record for MAVESRVTQEEIKKEPEKPIDREKTCPLLLRVFTTNNGRHHRMDEFSRGNVPSSELQIYTWMDATLKELTSLVKEVYPEARKKGTHFNFAIVFTDVKRPGYRVKEIGSTMSGRKGTDDSMTLQSQKFQIGDYLDIAITPPNRAPPPSGRMRPY [SAP18] ?
Ans. 3.26

Qu. Which thermal stability score value is on record for MSGSMATAEASGSDGKGQEVETSVTYYRLEEVAKRNSLKELWLVIHGRVYDVTRFLNEHPGGEEVLLEQAGVDASESFEDVGHSSDAREMLKQYYIGDIHPSDLKPESGSKDPSKNDTCKSCWAYWILPIIGAVLLGFLYRYYTSESKSS [CYB5B] ?
Ans. -0.285

Qu. Which thermal stability score value is on record for MAALGGDGLRLLSVSRPERPPESAALGGLGPGLCCWVSVFSCLSLACSYVGSLYVWKSELPRDHPAVIKRRFTSVLVVSSLSPLCVLLWRELTGIQPGTSLLTLMGFRLEGIFPAALLPLLLTMILFLGPLMQLSMDCPCDLADGLKVVLAPRSWARCLTDMRWLRNQVIAPLTEELVFRACMLPMLAPCMGLGPAVFTCPLFFGVAHFHHIIEQLRFRQSSVGNIFLSAAFQFSYTAVFGAYTAFLFIRTGHLIGPVLCHSFCNYMGFPAVCAALEHPQRRPLLAGYALGVGLFLLLLQPLTDPKLYGSLPLCVLLERAGDSEAPLCS [RCE1] ?
Ans. -0.247

Qu. Which thermal stability score value is on record for MTCWLRGVTATFGRPAEWPGYLSHLCGRSAAMDLGPMRKSYRGDREAFEETHLTSLDPVKQFAAWFEEAVQCPDIGEANAMCLATCTRDGKPSARMLLLKGFGKDGFRFFTNFESRKGKELDSNPFASLVFYWEPLNRQVRVEGPVKKLPEEEAECYFHSRPKSSQIGAVVSHQSSVIPDREYLRKKNEELEQLYQDQEVPKPKSWGGYVLYPQVMEFWQGQTNRLHDRIVFRRGLPTGDSPLGPMTHRGEEDWLYERLAP [PNPO] ?
Ans. -1.82

Qu. Which thermal stability score value is on record for MSAAGLLAPAPAQAGAPPAPEYYPEEDEELESAEDDERSCRGRESDEDTEDASETDLAKHDEEDYVEMKEQMYQDKLASLKRQLQQLQEGTLQEYQKRMKKLDQQYKERIRNAELFLQLETEQVERNYIKEKKAAVKEFEDKKVELKENLIAELEEKKKMIENEKLTMELTGDSMEVKPIMTRKLRRRPNDPVPIPDKRRKPAPAQLNYLLTDEQIMEDLRTLNKLKSPKRPASPSSPEHLPATPAESPAQRFEARIEDGKLYYDKRWYHKSQAIYLESKDNQKLSCVISSVGANEIWVRKTSDSTKMRIYLGQLQRGLFVIRRRSAA [SUDS3] ?
Ans. 0.399

----------
System: HeLa Kyoto
Test: melting temperature (median over replicates), in situ; higher = more thermally stable
Settings: cell cycle stage: mitosis
Measured Metric: melting temperature (°C)
Answer in °C, number only, no unit symbol.

MAATAAEAVASGSGEPREEAGALGPAWDESQLRSYSFPTRPIPRLSQSDPRAEELIENEEPVVLTDTNLVYPALKWDLEYLQENIGNGDFSVYSASTHKFLYYDEKKMANFQNFKPRSNREEMKFHEFVEKLQDIQQRGGEERLYLQQTLNDTVGRKIVMDFLGFNWNWINKQQGKRGWGQLTSNLLLIGMEGNVTPAHYDEQQNFFAQIKGYKRCILFPPDQFECLYPYPVHHPCDRQSQVDFDNPDYERFPNFQNVVGYETVVGPGDVLYIPMYWWHHIESLLNGGITITVNFWYKGAPTPKRIEYPLKAHQKVAIMRNIEKMLGEALGNPQEVGPLLNTMIKGRYN [HIF1AN] = 51.7

Read the next record carefully.
Qu. Which melting temperature value is on record for MAVTITLKTLQQQTFKIRMEPDETVKVLKEKIEAEKGRDAFPVAGQKLIYAGKILSDDVPIRDYRIDEKNFVVVMVTKTKAGQGTSAPPEASPTAAPESSTSFPPAPTSGMSHPPPAAREDKSPSEESAPTTSPESVSGSVPSSGSSGREEDAASTLVTGSEYETMLTEIMSMGYERERVVAALRASYNNPHRAVEYLLTGIPGSPEPEHGSVQESQVSEQPATEAAGENPLEFLRDQPQFQNMRQVIQQNPALLPALLQQLGQENPQLLQQISRHQEQFIQMLNEPPGELADISDVEGEVGAIGEEAPQMNYIQVTPQEKEAIERLKALGFPESLVIQAYFACEKNENLAANFLLSQNFDDE [RAD23A] ?
Ans. 55.5

----------
Tested on: HeLa Kyoto
Experiment: thermal stability score vs G1/S (z-score of summed log2 fold changes over temperatures); higher = more thermally stable than in G1/S
Conditions: cell cycle stage: mitosis
Measured Metric: thermal stability score
Just the number, please, no unit attached.

MADIDNKEQSELDQDLDDVEEVEEEETGEETKLKARQLTVQMMQNPQILAALQERLDGLVETPTGYIESLPRVVKRRVNALKNLQVKCAQIEAKFYEEVHDLERKYAVLYQPLFDKRFEIINAIYEPTEEECEWKPDEEDEISEELKEKAKIEDEKKDEEKEDPKGIPEFWLTVFKNVDLLSDMVQEHDEPILKHLKDIKVKFSDAGQPMSFVLEFHFEPNEYFTNEVLTKTYRMRSEPDDSDPFSFDGPEIMGCTGCQIDWKKGKNVTLKTIKKKQKHKGRGTVRTVTKTVSNDSFFNFFAPPEVPESGDLDDDAEAILAADFEIGHFLRERIIPRSVLYFTGEAIEDDDDDYDEEGEEADEEGEEEGDEENDPDYDPKKDQNPAECKQQ [NAP1L1] = 2.03

Qu. Which thermal stability score value is on record for MAATKRKRRGGFAVQAKKPKRNEIDAEPPAKRHATAEEVEEEERDRIPGPVCKGKWKNKERILIFSSRGINFRTRHLMQDLRMLMPHSKADTKMDRKDKLFVINEVCEMKNCNKCIYFEAKKKQDLYMWLSNSPHGPSAKFLVQNIHTLAELKMTGNCLKGSRPLLSFDPAFDELPHYALLKELLIQIFSTPRYHPKSQPFVDHVFTFTILDNRIWFRNFQIIEEDAALVEIGPRFVLNLIKIFQGSFGGPTLYENPHYQSPNMHRRVIRSITAAKYREKQQVKDVQKLRKKEPKTLLPHDPTADVFVTPAEEKPIEIQWVKPEPKVDLKARKKRIYKRQRKMKQRMDSGKTK [BRIX1] ?
Ans. -2.33
